Assayed Target: MAPK10 (human)
Assay: KINOMEscan competition binding
Measurement Context: compound 10.0 µM
Property Label: kinase still bound, per cent of control (%)
Write it as a number; the unit % goes unstated.

[Q] # kinase still bound, per cent of control lookup, item `N=C1NC(=O)/C(=C/c2ccc(-c3cccc4cc[nH]c34)o2)S1`
[A] 31

[Q] Same question for `CN(C)C1=NC(=O)/C(=C/c2ccc(-c3ccc(S(N)(=O)=O)cc3)o2)S1` please.
[A] 22

[Q] Please give the result for `Cc1cn(-c2cc(NC(=O)c3cccc4cc(-c5ccc(/C=C6\SC(=N)NC6=O)o5)ccc34)cc(C(F)(F)F)c2)cn1` too.
[A] 16

[Q] Also `CN1CCN(c2ccc(C(=O)Nc3ncc4c(n3)N(C)c3ccccc3C(=O)N4C)cc2)CC1` , if possible.
[A] 93

[Q] And for `COc1cc(N2CCN(C)CC2)ccc1Nc1ncc2c(n1)N(C)c1sccc1C(=O)N2C` ?
[A] 70

[Q] Similarly, `COc1cc(N2CCN(C)CC2)ccc1Nc1ncc2c(n1)N(C)c1ccccc1N(C)C2=O` ?
[A] 85

[Q] Also, `O=C1NC(=O)/C(=C/c2c[nH]c(=O)c(-c3ccc(N4CCNCC4)nc3)c2)S1` please.
[A] 77
